These entries and their values trace back to the supplement of paper PMC7125110.

The entries below are paired with their reported self-cleavage kobs at 2500 uM GlcN6P.
B1: glmS ribozyme (parent)
chain: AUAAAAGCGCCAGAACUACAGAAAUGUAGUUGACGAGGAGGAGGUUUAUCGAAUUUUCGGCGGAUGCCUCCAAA

Variants of: B1
Assay: self-cleavage kobs at 2500 uM GlcN6P; higher = faster cleavage; RNA array
Settings: with glucosamine-6-phosphate
Variants at the floor of the assay were thinned out.
Write the number in s⁻¹ without appending the unit.

- VARIANT DESCRIPTION: "G51U C61G C71G"
  OBSERVED: "9.55e-05"
- VARIANT DESCRIPTION: "U31G A53C"
  OBSERVED: 0.00165
- VARIANT DESCRIPTION: "A53C U54A"
  OBSERVED: 0.00277
- VARIANT DESCRIPTION: "A14G C58U G66U C67G"
  OBSERVED: "7.46e-05"

Problem: Read off the recorded self-cleavage kobs at 2500 uM GlcN6P for U46C U55A
Result: 0.00248

Problem: Read off the recorded self-cleavage kobs at 2500 uM GlcN6P for A14C C16U
Result: 0.000655
